Reference source: the supplement of paper PMC9233669

- Tested on: biotinyl-Val-oxazolone
- assayNotes: self-aminoacylation, catalytic enhancement (BVO) (fold over background); higher = more active; k-Seq, kA / k0A0; sequences stand for … in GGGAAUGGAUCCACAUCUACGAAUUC…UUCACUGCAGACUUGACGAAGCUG
This sample holds only a part of the variants without activity.
testReadout: self-aminoacylation
Output spec: single numeric token, no unit.

> print(dat)
                             recordsequence  valuemeasured
1  AAGUUUGCUAAUAGUCAUAAG [Fam3.1 aminoacylation ribozyme variant]           1.25

Memo: AAGUAUGCUAAUAGCCGCAAG [Fam3.1 aminoacylation ribozyme variant] , reported self-aminoacylation: 1.05

For record CCACACGUCAAGCAAUCGGGC [Fam1B.1 aminoacylation ribozyme variant] the listed self-aminoacylation is 2.23

# sequence CGACUUAAAACAAUCGGUCUG [Fam1A.1 aminoacylation ribozyme variant] ; its self-aminoacylation = 1.17

Reported self-aminoacylation ( CUACUUCAAACAUUUGGUCUG [Fam1A.1 aminoacylation ribozyme variant] ) = 0.984

Reported self-aminoacylation of AAUUGUGCUAAUAGUCGCAAG [Fam3.1 aminoacylation ribozyme variant] : 1.75

// sample AUUAUCUUGGUCAUCGAGUGA [Fam2.1 aminoacylation ribozyme variant] , its self-aminoacylation was 3.11

Lab note: AUUACCCUGGUCAUCGAGUAA [Fam2.1 aminoacylation ribozyme variant] gave self-aminoacylation of 10.1

Input CUACUUUAAACAAUCGGUCUU [Fam1A.1 aminoacylation ribozyme variant] . Output self-aminoacylation: 0.885

The sequence CUAGUGCAAACAAUCGGUCUG [Fam1A.1 aminoacylation ribozyme variant] showed self-aminoacylation equal to 1

Short answer for AUUCACCUAAGUCAUCGGGUA [Fam2.2 aminoacylation ribozyme variant] : self-aminoacylation was 2.62

// recorded self-aminoacylation for CCGAACUUCAAGCAAUCGGUC [Fam1B.1 aminoacylation ribozyme variant] : 1.54
